# System: Fibrinogen (Alexa647-labelled)
# Protocol: fibrinogen binders on compound microarrays, profiling panel, artefact control for SMM control-protein annotation, biochemical, small-molecule microarray, 635/667 nm fluorescence (AID 1131);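 further: z-score merges 667 nm fluorescence with per-spot signal-to-noise over triplicate slides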
# Assay Context: fibrinogen-A647 binding fluorescence, higher = more signal
Recorded Endpoint: composite z-score
Provide a numeric answer; units are not to be included.

Query string: Which composite z-score is reported for this compound? C=CCC(OC(C)=O)[C@@H]1[C@@H](N(Cc2cccc3ccccc23)C(=O)Cc2ccc(OC)cc2)c2cc(OCCCO)ccc2N1C(=O)c1ccc2ccccc2n1 (stereo partly specified)
Result string: 0.733

Query string: Value lookup for composite z-score; key = `COc1ccc([Si](C)(C)[C@@H]2[C@@H](CCO)O[C@]3(C(=O)N(Cc4ccc(N5CCCCC5=O)cc4)c4ccccc43)[C@H]2C)cc1`
Result string: 0.842

Query string: Recorded composite z-score of `COCCOC(=O)N1C(=O)[C@@]2(c3cc(C#CC4=CCCCC4)ccc31)[C@H](c1ccccc1OCCO)N1[C@H](c3ccccc3)[C@H](c3ccccc3)OC(=O)[C@H]1[C@@H]2C(=O)Nc1nc2ccccc2s1` , please.
Result string: 0.868

Query string: Entry CN1C(=O)C2C=CC(C(O)c3ccccn3)N(N(c3ccccc3)c3ccccc3)C2C1=O (stereo unspecified) : reported composite z-score = ?
Result string: 0.66

Query string: Would you kindly share the measured composite z-score for `CCCNC(=O)[C@@]1(c2ccc([N+](=O)[O-])cc2)CC(=O)N(C2CCCCC2)[C@@H]1c1ccc(CO)cc1` ?
Result string: 0.831

Query string: Sample `O=C(NCc1ccccc1)[C@@H]1c2ccccc2C(=O)N(Cc2ccccc2C(F)(F)F)[C@H]1c1ccc(CO)cc1` — what was its composite z-score?
Result string: -0.709

###

# Measured Target: Fibroblast growth factor 2 (Homo sapiens)
# Protocol: FGF2 binders on small-molecule microarrays, primary screen, biochemical, small-molecule microarray, 635/667 nm fluorescence (AID 1133)
# Assay Context: small-molecule microarray binding, FGF2, fluorescence 635/667; higher = more signal
Please provide measured composite z-score for the entries that follow.
The reply should be a number, written without any unit.

Query string: Which composite z-score is listed for `C=CCNC(=O)[C@H]1[C@@H]2C(=O)O[C@@H](c3ccccc3)[C@@H](c3ccccc3)N2[C@@H](c2ccc(O)cc2)[C@]12C(=O)N(C(=O)OCCOC)c1ccccc12` ?
Result string: 0.198

Query string: # get_value(readout='composite z-score', item= `COCCOC(=O)N1C(=O)[C@@]2(c3cc(C#CC4=CCCCC4)ccc31)[C@H](c1ccc(OCCO)cc1)N1[C@H](c3ccccc3)[C@H](c3ccccc3)OC(=O)[C@H]1[C@@H]2C(=O)N1CCN(c2ncccn2)CC1` )
Result string: 0.692

Query string: Could you tell me which composite z-score is on file for CC(C)C(CO)N1C(=O)[C@@H]2C3C(=O)OCCC/C=C\[C@H]3OC23C=CCN(C(C)(C)C)C(=O)[C@@H]13 (stereo partly specified) ?
Result string: -0.363

Query string: Sample `CCCC[C@@H]1C[C@H]1[C@@H](NC(=O)c1cccs1)c1ccc(C(F)(F)F)cc1` — what was its composite z-score?
Result string: -0.38

Query string: I have this compound here, `COCCCNC(=O)[C@]1(CCS(=O)(=O)c2ccccc2)N=C(c2ccc(OCCCO)cc2)O[C@@H]1c1ccccc1N=[N+]=[N-]` , and I need its recorded composite z-score.
Result string: -0.138

Query string: Fill blank: measured composite z-score of the compound `COC(=O)c1c2oc(c1C(=O)OC)C(=O)N(Cc1ccccc1)Cc1cn(nn1)C[C@H](Cc1ccccc1)NC(=O)N[C@H](CO)CC2` is ____.
Result string: -0.107

###

# Protocol: basal RPMI8226 mitochondrial membrane potential changes, profiling panel, cell-based, JC-1 fluorescence, 24 h, 100 nL compound (AID 1169); further: test concentration not given here
# Assay Context: RPMI8226 myeloma, JC-1 mitochondrial potential fluorescence, higher = more signal
Give z-score for every item shown.
Answer field: number only, no words.

Query string: Request the reported z-score associated with C=CCC(OC(C)=O)[C@@H]1[C@@H](N(Cc2cccc3ccccc23)C(=O)Cc2ccc(F)cc2)c2cc(OCCCO)ccc2N1C(=O)c1ccc2ccccc2n1 (stereo partly drawn)
Result string: 0.515

Query string: Looking for the measured z-score of `C=CCOC(=O)[C@H]1[C@@H]2C(=O)O[C@@H](c3ccccc3)[C@@H](c3ccccc3)N2[C@@H](c2ccc(OCCOC(=O)[C@H]3C[C@H]4C(=O)N[C@@H](CC(C)C)C(=O)N4[C@H]3c3cccc(OCCO)c3)cc2)[C@]12C(=O)Nc1ccc(I)cc12` , can you help?
Result string: -0.762

Query string: Give the measured z-score of `O=C1O[C@@H](c2ccccc2)[C@@H](c2ccccc2)N2[C@@H](c3ccc(OCCO)cc3)[C@]3(C(=O)Nc4ccccc43)[C@@H](C(=O)O)[C@H]12` .
Result string: -0.0788

Query string: Item under review: `CC(=O)NCCCC[C@@H]1NC(=O)[C@@H]2C[C@H](C(=O)NCCCC[N+](C)(C)C)[C@H](c3ccc(O)cc3)N2C1=O` . Reported z-score?
Result string: -0.547

Query string: Given the entry `[N-]=[N+]=NCc1ccccc1C[C@@]1(C(=O)N2CCOCC2)N=C(c2ccc(OCCCO)cc2)O[C@@H]1c1ccccc1` , report its measured z-score.
Result string: -1.25

Query string: I am curious: what z-score value has been reported for CC1CC/C=C\[C@H]2OC34C=CCN(C(C)C)C(=O)[C@H]3N(CCCCCCO)C(=O)[C@@H]4C2C(=O)O1 (stereo partly drawn) ?
Result string: -0.426

Query string: Return reported z-score; argument: `COC(=O)Cn1c(C(=O)N(C)C)cc2c1C[C@H]1CN(C(=O)c3ccccc3)[C@@](Cc3ccc(F)cc3)(C(=O)OC)[C@@H]21`
Result string: 0.446

Query string: Which z-score value is on record for `COC(=O)[C@@]1(Cc2ccc(OC)cc2)[C@H]2c3cc(C(=O)N4CCCC4)n(Cc4c(-c5ccccc5)noc4C)c3C[C@H]2CN1C(=O)c1ccccc1` ?
Result string: -0.774

Query string: Need z-score, item `CN(C)C(=O)[C@@]1(CCS(=O)(=O)c2ccccc2)N=C(c2ccc(OCCCO)cc2)O[C@H]1c1ccccc1`
Result string: 0.331

Query string: Find the recorded z-score belonging to `COCCCNC(=O)[C@]1(CCS(=O)(=O)c2ccccc2)N=C(c2ccc(OCCCO)cc2)O[C@@H]1c1ccccc1CN=[N+]=[N-]` and report it.
Result string: -0.393

Query string: I have this compound here, `[N-]=[N+]=Nc1ccccc1[C@H]1OC(c2ccc(OCCCO)cc2)=N[C@@]1(Cc1ccccc1)C(=O)N1CCCCC1` , and I need its recorded z-score.
Result string: -1.15

Query string: May I ask what z-score has been recorded for `COCCOC(=O)N1C(=O)[C@@]2(c3cc(C#CC4=CCCCC4)ccc31)[C@H](C(N)=O)[C@H]1C(=O)O[C@H](c3ccccc3)[C@H](c3ccccc3)N1[C@@H]2c1ccccc1OCCO` ?
Result string: -0.819

Query string: Report z-score for `CCOC(=O)C[C@H]1[C@H](OC(=O)Cc2ccc3c(c2)OCO3)[C@@H](NC(=O)Cc2ccc(OC)cc2)c2cc(OCCCO)ccc2N1C(=O)c1ccc2ccccc2n1` please.
Result string: 0.628

###

Exercise: for every item that follows, state its recorded z-score.
# Protocol: PSAC antagonists in infected red cells, primary screen, cell-based, P. falciparum Indochina, OD700, 1 h (AID 1154)
# Assay Context: P. falciparum Indochina infected RBC osmotic lysis, higher = more signal, called active from +8 up or from −8 down
Quick one: just the number, no unit, thanks!

Query string: If you can, please state the reported z-score value of `CCOC(=O)C[C@H]1[C@H](OC(=O)c2ccccc2-c2ccccc2)[C@@H](NC(=O)C2CCCCC2)c2cc(OCCCO)ccc2N1C(=O)Cc1ccc(OC)cc1` .
Result string: 1.1

Query string: So what's the measured z-score for this one? `COC(=O)C(CC#Cc1ccc2c(c1)[C@]1(C(=O)N2)[C@H](C(=O)N2CCN(c3ncccn3)CC2)[C@H]2C(=O)O[C@H](c3ccccc3)[C@H](c3ccccc3)N2[C@@H]1c1ccc(OCCO)cc1)C(=O)OC`
Result string: 11

Query string: Which z-score reading was recorded for the compound O=C1OCCC/C=C\[C@H]2OC34C=CCN(CCN5CCOCC5)C(=O)[C@H]3N(CCCCCCO)C(=O)[C@@H]4C12 (stereo partly drawn) ?
Result string: 3.78

###

Give composite z-score for every item shown.
# Measured Target: Torsin-1A (Homo sapiens)
# Protocol: torsin A binders from cell lysate, primary screen, small-molecule microarray, wild-type, 635/667 nm (AID 1149)
# Assay Context: COS7 hTOR1A-WT lysate, 635 nm fluorescence, higher = more signal

Query string: Recorded composite z-score for C=CCC(OC(C)=O)[C@@H]1[C@@H](N(Cc2cccc3ccccc23)C(=O)Cc2ccc(F)cc2)c2cc(OCCCO)ccc2N1C(=O)c1ccc2ccccc2n1 (some centres not stated) , please?
Result string: -0.149

Query string: Sample `COC(=O)[C@@]1(Cc2ccc(OC)cc2)[C@H]2c3cc(C(=O)N4CCCC4)n(Cc4c(-c5ccccc5)noc4C)c3C[C@H]2CN1C(=O)c1ccccc1` — what was its composite z-score?
Result string: 1.27

Query string: Dear colleague, I am looking for the recorded composite z-score of the following molecule: C[C@@H]1NC(=O)[C@@]23C(=O)N[C@@H](Cc4ccccc4)C2[C@H](C)[C@@]2(C)O[C@H]2C3/C=C/C/C=C\CNC(=O)[C@@H]2CCCN2C1=O (some centres not stated)
Result string: 0.271

Query string: Reported composite z-score for `O=C(CS)NCCCCCCNC(=O)[C@H]1C[C@H]2C(=O)N[C@@H](Cc3ccccc3)C(=O)N2[C@H]1c1ccc(O)cc1` : what is it?
Result string: 1.08

Query string: Using the record for `COc1cc2c(cc1OC)CN(C(=O)[C@@H]1[C@H]3C(=O)O[C@H](c4ccccc4)[C@H](c4ccccc4)N3[C@H](c3ccc(OCCO)cc3)[C@@]13C(=O)Nc1ccccc13)CC2` , report its composite z-score.
Result string: 1.06

Query string: Any idea what composite z-score was measured for O=C1C2C=CC(C(O)c3ccccc3)N(Nc3ccccc3F)C2C(=O)N1c1ccccc1 (configuration not stated) ?
Result string: -0.292

Query string: I would be grateful if you could share the reported composite z-score for CN1C(=O)C2C=CC(C(O)c3ccccn3)N(N(c3ccccc3)c3ccccc3)C2C1=O (configuration not stated) .
Result string: 0.678

Where do the numbers come from? From PubChem BioAssay.
